Molecular target: AgBzz1-D2
Test: SPOT peptide array binding signal intensity (averaged, normalized) (arbitrary units (background-subtracted, floor 0; scale differs between SH3 domains)); higher = stronger binding of the SH3 domain to the peptide
assay.endpoint: SPOT peptide array binding signal intensity
// print number alone

Use the examples below as a reference point.
Consider the binder RRASLFPRDPKRLRP and give its measured SPOT peptide array binding signal intensity.
49

For SHRLWLYAAPKRPKT , what is its reported SPOT peptide array binding signal intensity?
42

Entry under review: DRIRMFIRFPKFLLE . Reported SPOT peptide array binding signal intensity?
20

Returns the measured SPOT peptide array binding signal intensity for the input binder. Input: YSRKKLPVVLSKMTL
43.5

Name the reported SPOT peptide array binding signal intensity value associated with the binder RVTRKRPREPKSTND
31

Others:
// lookup SPOT peptide array binding signal intensity for NFFRKKLGIPRKLKR
45

For AERNYAPRLPRRETS , what is its reported SPOT peptide array binding signal intensity?
128

Using the record for LLLLFVPDSPYDPAI , report its SPOT peptide array binding signal intensity.
20.5

// returns reported SPOT peptide array binding signal intensity for input KNPRRQLQIPRQQPS
44
